Please consider the recorded MIC for MRSA in what follows.

>  <mol smiles>
CC1(C)S[C@@H]2[C@H](NC(=O)[C@H](N)c3ccccc3)C(=O)N2[C@H]1C(=O)O

>  <MIC / µg/mL>
4

$$$$
>  <mol smiles>
O=C(N[C@H](CO)[C@H](O)c1ccc([N+](=O)[O-])cc1)C(Cl)Cl

>  <MIC / µg/mL>
4

$$$$
>  <mol smiles>
NCC[C@H](O)C(=O)N[C@@H]1C[C@H](N)[C@@H](O[C@H]2O[C@H](CN)[C@@H](O)[C@H](O)[C@H]2O)[C@H](O)[C@H]1O[C@H]1O[C@H](CO)[C@@H](O)[C@H](N)[C@H]1O

>  <MIC / µg/mL>
1.56

$$$$
